TARGET UNDER TEST: b-Raf (V600E) (Homo sapiens (Human), UniProt P15056, V600E)
Sequence (P15056 whole entry V600E): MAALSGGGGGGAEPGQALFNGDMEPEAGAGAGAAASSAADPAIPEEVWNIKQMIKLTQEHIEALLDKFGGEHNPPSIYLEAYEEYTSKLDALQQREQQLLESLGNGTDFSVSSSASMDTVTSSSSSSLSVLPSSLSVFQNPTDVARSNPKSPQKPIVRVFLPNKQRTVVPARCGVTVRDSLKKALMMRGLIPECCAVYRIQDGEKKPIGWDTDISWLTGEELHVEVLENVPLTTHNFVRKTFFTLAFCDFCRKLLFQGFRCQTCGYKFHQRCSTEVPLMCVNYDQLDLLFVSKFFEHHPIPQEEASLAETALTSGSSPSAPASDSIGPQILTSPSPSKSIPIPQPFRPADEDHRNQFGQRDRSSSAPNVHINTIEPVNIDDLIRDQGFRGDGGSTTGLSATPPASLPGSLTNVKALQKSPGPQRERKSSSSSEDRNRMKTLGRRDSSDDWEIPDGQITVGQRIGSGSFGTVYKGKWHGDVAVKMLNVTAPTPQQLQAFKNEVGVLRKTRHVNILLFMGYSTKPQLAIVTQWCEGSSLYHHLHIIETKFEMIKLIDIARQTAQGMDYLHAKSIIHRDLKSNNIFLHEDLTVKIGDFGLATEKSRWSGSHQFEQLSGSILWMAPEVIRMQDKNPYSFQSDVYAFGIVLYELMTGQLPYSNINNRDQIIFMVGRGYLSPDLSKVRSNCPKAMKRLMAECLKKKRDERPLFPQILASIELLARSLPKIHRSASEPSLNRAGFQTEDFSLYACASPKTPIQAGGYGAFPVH
SETTINGS: read-out: b-Raf IC-50; AlphaScreen, 60 min pre-incubation, 3 hours reaction
pIC50: −log10 of the molar value.

COMPOUND: Cc1ncc(NC(=O)c2cccc(C(F)(F)F)c2)cc1-c1cc(N2CCOCC2)nc(N(C)C)n1 [Example 760]
pIC50: 7.95
--
COMPOUND: Cc1ccc(NC(=O)c2ccnc(C(C)(C)C#N)c2)cc1-c1cc(N2CCOCC2(C)C)c(=O)n(C)n1 [Example 671]
pIC50: 7.59
--
COMPOUND: Cc1ccc(NC(=O)c2cccc(C(F)(F)F)c2)cc1-c1nc(N2CCOCC2)c2cnn(C)c2n1 [Example 840]
pIC50: 9.22
--
COMPOUND: Cc1ncc(NC(=O)c2ccnc(C(C)(C)O)c2)cc1-c1cc(N2CCOCC2)n2nccc2n1 [Example 797]
pIC50: 7.61
--
COMPOUND: CCNc1nc(-c2cc(NC(=O)c3ccnc(C(C)(C)C)c3)cnc2C)cc(N2CCOCC2)n1 [Example 724]
pIC50: 7.69
--
COMPOUND: Cc1ccc(NC(=O)c2cccc(C(F)(F)F)c2)cc1-c1cc(N2CC3CC(C2)O3)c(=O)n(C)c1 [Example 464]
pIC50: 7.77
--
COMPOUND: Cc1ccc(NC(=O)c2ccnc(C(C)(F)F)c2)cc1-c1cc(N2CCOC[C@H]2C)n(C)c(=O)c1 [Example 523]
pIC50: 8.43

---

TARGET UNDER TEST: b-Raf (V600E) (Homo sapiens (Human), UniProt P15056, V600E)
SETTINGS: read-out: b-Raf IC-50; Table 2; AlphaScreen, 3 hours reaction
Readings of IC50 for the listed compounds
ASSAY ENDPOINT: IC50 (nM)

COMPOUND: CCOc1ncc(-c2cc(NC(=O)c3ccnc(C(F)F)c3)ccc2C)cc1N1CCOCC1 [Example 237]
TARGET UNDER TEST: b-Raf (V600E) (Homo sapiens (Human), UniProt P15056, V600E)
ASSAY ENDPOINT: IC50
VALUE UNITS: nM
ENDPOINT VALUE: 0.4
--
COMPOUND: Cc1ncc(NC(=O)c2ccnc(C(C)(C)C#N)c2)cc1-c1cnc(OCCO)c(N2CCOCC2)c1 [Example 300]
TARGET UNDER TEST: b-Raf (V600E) (Homo sapiens (Human), UniProt P15056, V600E)
ASSAY ENDPOINT: IC50
VALUE UNITS: nM
ENDPOINT VALUE: 14.6
--
COMPOUND: Cc1ncc(NC(=O)c2cccc(C(F)(F)F)c2)cc1-c1cnc(C(C)(C)C#N)c(N2CCOCC2)c1 [Example 326]
TARGET UNDER TEST: b-Raf (V600E) (Homo sapiens (Human), UniProt P15056, V600E)
ASSAY ENDPOINT: IC50
VALUE UNITS: nM
ENDPOINT VALUE: 3.7
--
COMPOUND: CCOc1ncc(-c2cc(NC(=O)c3cc(N4CCN(CC)CC4)cc(C(F)(F)F)c3)cnc2C)cc1N1CCOCC1 [Example 257]
TARGET UNDER TEST: b-Raf (V600E) (Homo sapiens (Human), UniProt P15056, V600E)
ASSAY ENDPOINT: IC50
VALUE UNITS: nM
ENDPOINT VALUE: 10

---

Property: log10 IC50; scope: individual compounds
TARGET UNDER TEST: b-Raf (V600E) (Homo sapiens (Human), UniProt P15056, V600E)
SETTINGS: read-out: b-Raf IC-50; AlphaScreen, 60 min pre-incubation, 3 hours reaction
ASSAY ENDPOINT: log10 IC50 (log10 of the value in nM)

COMPOUND SMILES: Cc1ccc(NC(=O)c2ccnc(C(C)(C)C#N)c2)cc1-c1cc(N2CCOCC2)nc(N(C)C)n1
ENDPOINT VALUE: 1.25

COMPOUND SMILES: Cc1ccc(NC(=O)c2ccnc(C(F)(F)F)c2)cc1-c1cc(N2CCOCC2)nc(N(C)C)n1
ENDPOINT VALUE: 0.45

COMPOUND SMILES: Cc1ccc(NC(=O)c2cccc(C(F)(F)F)c2)cc1-c1cc(N2CCOCC2)nc(N2CC(O)C2)n1
ENDPOINT VALUE: 0.00

COMPOUND SMILES: Cc1ccc(NC(=O)c2ccnc(C(C)C)c2)cc1-c1cc(N2CCOCC2)nc(OC2CNC2)n1
ENDPOINT VALUE: 0.36

COMPOUND SMILES: Cc1ncc(NC(=O)c2ccnc(C(C)(C)C#N)c2)cc1-c1cc(N2CCOCC2)n2nccc2n1
ENDPOINT VALUE: 1.06

COMPOUND SMILES: COc1nnc(-c2cc(NC(=O)c3ccnc(C4CC4)c3)ccc2C)cc1N1CCOCC1
ENDPOINT VALUE: 0.08

COMPOUND SMILES: Cc1ncc(C(=O)Nc2cccc(C(F)(F)F)c2)cc1-c1cc(N2CCOCC2)c(=O)n(C)c1
ENDPOINT VALUE: 0.79

COMPOUND SMILES: COc1nnc(-c2cc(NC(=O)c3ccnc(C(C)(C)F)c3)ccc2C)cc1N1CCOCC1
ENDPOINT VALUE: 0.48

COMPOUND SMILES: CCOc1nnc(-c2cc(NC(=O)c3cccc(C(F)(F)F)c3)cnc2C)cc1N1CCOC[C@@H]1C
ENDPOINT VALUE: 0.40

COMPOUND SMILES: Cc1ccc(NC(=O)c2ccnc(C3COC3)c2)cc1-c1cc(N2CCOCC2)c(=O)n(C)n1
ENDPOINT VALUE: 0.65

COMPOUND SMILES: CCOc1nnc(-c2cc(NC(=O)c3ccnc(C(C)(C)C#N)c3)ccc2C)cc1N1CCOCC1
ENDPOINT VALUE: -0.10

COMPOUND SMILES: Cc1ccc(NC(=O)c2ccnc(S(C)(=O)=O)c2)cc1-c1cc(N2CCOCC2)c(OC2CCOCC2)nn1
ENDPOINT VALUE: -0.10

COMPOUND SMILES: Cc1ncc(NC(=O)c2ccnc(C(C)C)c2)cc1-c1cc(N2CCOCC2)n(C)c(=O)c1
ENDPOINT VALUE: 0.76

COMPOUND SMILES: Cc1ccc(NC(=O)c2cnnc(C(C)(C)C#N)c2)cc1-c1cc(N2CCOCC2)n2nccc2n1
ENDPOINT VALUE: 0.26

COMPOUND SMILES: CCOc1nnc(-c2cc(NC(=O)c3ccc(CNC)c(C(F)(F)F)c3)cnc2C)cc1N1CCOCC1
ENDPOINT VALUE: 1.15

COMPOUND SMILES: Cc1ccc(NC(=O)c2cccc(C(F)(F)F)c2)cc1-c1nc(N2CCOCC2)c2occc2n1
ENDPOINT VALUE: -0.05

---

Quick reference: IC50 of the listed items.
TARGET UNDER TEST: b-Raf (V600E) (Homo sapiens (Human), UniProt P15056, V600E)
SETTINGS: read-out: b-Raf IC-50; AlphaScreen, 60 min pre-incubation, reaction 3 hours at room temperature

MOLECULE: Cc1ncc(NC(=O)c2ccnc(S(C)(=O)=O)c2)cc1-c1cc(N2CCOCC2)nc(N2CCOCC2)c1
IC50 (nM): 12.1
--
MOLECULE: Cc1ccc(NC(=O)c2cccc(C(F)F)c2)cc1-c1cc(N2CCOCC2)nc(N2CCOCC2)c1
IC50 (nM): 0.82
--
MOLECULE: Cc1ncc(NC(=O)c2ccnc(C(C)(F)F)c2)cc1-c1cc(N2CCOCC2)c(OCC(F)F)nn1
IC50 (nM): 1.11
--
MOLECULE: Cc1ccc(NC(=O)c2cccc(-c3nnco3)c2)cc1-c1cc(N2CCOCC2)nc(N2CC(O)C2)c1
IC50 (nM): 3.89
--
MOLECULE: Cc1ccc(NC(=O)c2cnnc(C(C)(C)C#N)c2)cc1-c1cc(NCCO)nc(N2CCOCC2)c1F
IC50 (nM): 70.6
--
MOLECULE: Cc1ccc(NC(=O)c2ccnc(C(F)(F)F)c2)cc1-c1cc(NCC2CCOC2)nc(N2CCOCC2)c1 (stereo not shown)
IC50 (nM): 1.17
--
MOLECULE: Cc1ncc(NC(=O)c2ccnc(C(C)(C)C#N)c2)cc1-c1cc(N2CCOCC2)c2nccn2c1
IC50 (nM): 32.6

---

// reported IC50 for each item listed
TARGET UNDER TEST: b-Raf (V600E) (Homo sapiens (Human), UniProt P15056, V600E)
SETTINGS: read-out: b-Raf IC-50; AlphaScreen, 60 min pre-incubation, 3 hours reaction

MOLECULE: Cc1ncc(NC(=O)c2cccc(C(F)F)c2)cc1-c1cc(N2CCOCC2)n2nccc2n1 [Example 804]
TARGET UNDER TEST: b-Raf (V600E) (Homo sapiens (Human), UniProt P15056, V600E)
VALUE UNITS: nM
IC50: 0.8

MOLECULE: CCOc1ncc(-c2cc(NC(=O)c3cccc(C(F)(F)F)c3)cnc2C)nc1N1CCOCC1 [Example 539]
TARGET UNDER TEST: b-Raf (V600E) (Homo sapiens (Human), UniProt P15056, V600E)
VALUE UNITS: nM
IC50: 2.8

MOLECULE: Cc1ccc(NC(=O)c2ccnc(C(C)(F)F)c2)cc1-c1cc(N2CCOCC2)c(OCCO)nn1 [Example 587]
TARGET UNDER TEST: b-Raf (V600E) (Homo sapiens (Human), UniProt P15056, V600E)
VALUE UNITS: nM
IC50: 1.1

MOLECULE: COc1nnc(-c2cc(NC(=O)c3ccnc(C(F)(F)F)c3)cnc2C)cc1N1CCOCC1 [Example 605]
TARGET UNDER TEST: b-Raf (V600E) (Homo sapiens (Human), UniProt P15056, V600E)
VALUE UNITS: nM
IC50: 2.7
